Recorded PBM binding z-score by entry
test system: PPARg:RXRa 30nM:10nM, anti-RXR (NR concentration 30 nM, RXRa partner concentration 10 nM); assay: PBM binding z-score (relative to random genomic background probes); higher = stronger binding; sequences stand for … in GC…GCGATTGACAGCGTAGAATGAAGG
// response body must contain only the number

• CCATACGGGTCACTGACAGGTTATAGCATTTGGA = 1.43
• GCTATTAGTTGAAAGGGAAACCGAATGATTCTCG = 0.38
• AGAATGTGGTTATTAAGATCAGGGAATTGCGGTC = -0.037
• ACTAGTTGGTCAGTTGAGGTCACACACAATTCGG = 0.914
• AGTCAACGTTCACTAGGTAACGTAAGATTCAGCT = 0.121

Moving on to another sequence below.
Ask: Please report PBM binding z-score for the following sequence: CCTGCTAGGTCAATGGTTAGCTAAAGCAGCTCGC
Reply: 1.16

====

system: RARa:RXR (NR concentration 270 nM, RXRa partner concentration 90 nM); test: PBM binding z-score (relative to random genomic background probes); higher = stronger binding; sequences stand for … in GC…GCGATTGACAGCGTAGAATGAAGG
Examples of sequences with documented PBM binding z-score follow.

• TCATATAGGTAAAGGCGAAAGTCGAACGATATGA = 0.124
• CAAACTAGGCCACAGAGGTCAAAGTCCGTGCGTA = 6.18
• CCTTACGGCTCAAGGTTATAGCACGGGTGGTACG = 0.389
• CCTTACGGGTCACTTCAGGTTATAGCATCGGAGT = 3.67
• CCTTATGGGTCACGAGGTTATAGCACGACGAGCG = 5.4

Please look at the following sequence next.
Ask: State its PBM binding z-score for this sequence: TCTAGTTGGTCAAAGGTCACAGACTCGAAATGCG
Reply: 7.67

====

test system: PPARg:RXRa IVT, anti-PPARg (NR concentration 270 nM, RXRa partner concentration 90 nM); assay: PBM binding z-score (relative to random genomic background probes); higher = stronger binding; sequences stand for … in GC…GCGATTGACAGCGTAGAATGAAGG
Parameter Measured: PBM binding z-score
Please give the numeric answer without any surrounding text.

Ask: State PBM binding z-score on PPARg:RXRa IVT, anti-PPARg (NR concentration 270 nM, RXRa partner concentration 90 nM). Entry: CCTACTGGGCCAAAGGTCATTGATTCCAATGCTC
Reply: 7.01

Ask: Output reported PBM binding z-score of the sequence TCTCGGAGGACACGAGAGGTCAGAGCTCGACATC on PPARg:RXRa IVT, anti-PPARg (NR concentration 270 nM, RXRa partner concentration 90 nM).
Reply: 1.31

Ask: Report value: PBM binding z-score, system: PPARg:RXRa IVT, anti-PPARg (NR concentration 270 nM, RXRa partner concentration 90 nM), sequence: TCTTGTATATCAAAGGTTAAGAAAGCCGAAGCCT
Reply: 2.65

Ask: Check PPARg:RXRa IVT, anti-PPARg (NR concentration 270 nM, RXRa partner concentration 90 nM) data and give PBM binding z-score for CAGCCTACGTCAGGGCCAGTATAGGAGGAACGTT .
Reply: -0.587

Ask: Give measured PBM binding z-score for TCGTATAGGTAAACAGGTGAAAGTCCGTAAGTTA (PPARg:RXRa IVT, anti-PPARg (NR concentration 270 nM, RXRa partner concentration 90 nM)).
Reply: 2.33

Ask: Fetch value of PBM binding z-score on PPARg:RXRa IVT, anti-PPARg (NR concentration 270 nM, RXRa partner concentration 90 nM) for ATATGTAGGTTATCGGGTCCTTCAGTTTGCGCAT .
Reply: 6.98

Ask: Provide PPARg:RXRa IVT, anti-PPARg (NR concentration 270 nM, RXRa partner concentration 90 nM) PBM binding z-score reading for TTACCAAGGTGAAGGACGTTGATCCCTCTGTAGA .
Reply: 2.11

Ask: Please report the measured PBM binding z-score for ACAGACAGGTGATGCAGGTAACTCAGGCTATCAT tested on PPARg:RXRa IVT, anti-PPARg (NR concentration 270 nM, RXRa partner concentration 90 nM).
Reply: 0.729

Ask: State measured PBM binding z-score of the sequence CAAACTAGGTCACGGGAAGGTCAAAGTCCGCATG with PPARg:RXRa IVT, anti-PPARg (NR concentration 270 nM, RXRa partner concentration 90 nM).
Reply: 9.17

Ask: Report the value of PBM binding z-score obtained on PPARg:RXRa IVT, anti-PPARg (NR concentration 270 nM, RXRa partner concentration 90 nM) for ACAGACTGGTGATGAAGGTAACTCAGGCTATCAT .
Reply: -0.401

Ask: // output PBM binding z-score; input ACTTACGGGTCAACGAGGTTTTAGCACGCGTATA ; system PPARg:RXRa IVT, anti-PPARg (NR concentration 270 nM, RXRa partner concentration 90 nM)
Reply: 3.96

Ask: Tell me its PBM binding z-score on PPARg:RXRa IVT, anti-PPARg (NR concentration 270 nM, RXRa partner concentration 90 nM): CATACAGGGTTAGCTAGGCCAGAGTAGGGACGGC
Reply: 0.541

Ask: Find the measured PBM binding z-score of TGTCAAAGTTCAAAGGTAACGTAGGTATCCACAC with PPARg:RXRa IVT, anti-PPARg (NR concentration 270 nM, RXRa partner concentration 90 nM) as test system.
Reply: 4.5

Ask: Report its PBM binding z-score with PPARg:RXRa IVT, anti-PPARg (NR concentration 270 nM, RXRa partner concentration 90 nM) as the test system: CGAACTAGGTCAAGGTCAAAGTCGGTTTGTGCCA
Reply: 8.59

Data origin: the supplement of paper PMC6555819
